target_desc: T1, biotin-labeled human CD137 fused to human IgG1 Fc fragment (human, biotin-labeled);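 note: bead ELISA on streptavidin-coated magnetic beads, with the signal read as well fluorescence 2 min after APS-5 addition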
T1 construct: Immobilised on streptavidin beads through biotin; also called human CD137-Fc; biotin-human CD137-Fc
protocol_details: competitive bead ELISA, IgG on biotin-human CD137-Fc, competitor free CD3 epsilon peptide 125 pmol/well
test_readout: ELISA signal, free CD3e 125 pmol/well
Lab note: jot down the number only; don't add units.

INSERT INTO results (binder, reported) VALUES
  ('dBBDu139 (antibody, human IgG1, V domains shown, IgG: VH joined to human IgG1 CH1-Fc, GLS3000 as light chain) VH: QVQLVESGGGLVQPGRSLRLSCAASGFTFSNAWMHWVRQAPGKGLEWVAQIKDRGNAYNAYYAESVKGRFTISRDDSKNSIYLQMNSLKTEDTAVYYCRFVHYRHPLLHIQYGVDAWGQGTTVTVSS VL: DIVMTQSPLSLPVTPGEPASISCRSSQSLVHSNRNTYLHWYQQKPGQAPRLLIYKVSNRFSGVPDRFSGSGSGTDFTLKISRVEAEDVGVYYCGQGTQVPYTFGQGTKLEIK', 1920),
  ('dBBDu122 (antibody, human IgG1, V domains shown, IgG: VH joined to human IgG1 CH1-Fc, GLS3000 as light chain; also called DXDU01_3_#072; DXDU01_3 #072) VH: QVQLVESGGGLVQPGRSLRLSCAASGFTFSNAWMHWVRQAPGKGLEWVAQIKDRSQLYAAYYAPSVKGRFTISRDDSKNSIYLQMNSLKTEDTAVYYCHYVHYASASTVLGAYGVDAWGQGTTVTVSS VL: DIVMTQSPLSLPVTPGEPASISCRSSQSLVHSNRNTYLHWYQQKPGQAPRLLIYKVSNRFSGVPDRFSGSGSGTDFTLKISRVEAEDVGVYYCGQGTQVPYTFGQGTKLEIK', 1880);

Pending binder:
GET /value?item= dBBDu197 (antibody, human IgG1, V domains shown, IgG: VH joined to human IgG1 CH1-Fc, GLS3000 as light chain) VH: QVQLVESGGGLVQPGRSLRLSCAASGFTFSNAWMHWVRQAPGKGLEWVAQIKDRSNAYAAYYAPSVKGRFTISRDDSKNSIYLQMNSLKTEDTAVYYCHYVHYASASTVLPAFGVDAWGQGTTVTVSS VL: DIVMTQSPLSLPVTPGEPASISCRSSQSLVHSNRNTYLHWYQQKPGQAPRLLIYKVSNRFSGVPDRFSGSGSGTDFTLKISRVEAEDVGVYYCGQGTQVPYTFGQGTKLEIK &field=ELISA signal, free CD3e 125 pmol/well returns 2110
